Kindly state TF for each of the entries shown.
System: Tissue Factor (TF) production by human melanoma cell line RPMI-7951
assay.info: TF ELISA, RPMI-7951
Format: cell-based
measurement.setup: Table 5, 5 μM, DMSO control 7054
Give bare numbers, in pg/mL.

# return TF for each item in the list
1. COc1ccc(C=CC(=O)C=Cc2ccc(OC)cc2)cc1
2. COc1ccc(CCC(O)CCc2ccc(OC)c(OC)c2)cc1OC [MD279L, 1,5-Bis(3,4-dimethoxyphenyl)penta-3-ol]
3. COc1cc(C=C2CCCC(=Cc3ccc(O)c(OC)c3)C2=O)ccc1O

Reply |
[7043, 5791, 1793]

Could I get TF for every one of these entries?
1. C(=C\c1ccccc1)/S/C=C/c1ccccc1
2. COc1cc(CC2CCCC(Cc3ccc(O)c(OC)c3)C2=O)ccc1O (stereo not drawn) [Compound A231U]
3. COc1ccc(CCC(=O)CCc2ccc(OC)c(OC)c2)cc1OC [MD279U, 1,5-Bis(3,4-dimethoxyphenyl)penta-3-one]
4. O=C(C=Cc1ccccc1O)C=Cc1ccccc1O
5. COc1ccc(/C=C/C(=O)/C=C/c2ccc(OC)c(OC)c2)cc1OC
6. COc1cc(/C=C/C(=O)CC(=O)/C=C/c2ccc(O)c(OC)c2)ccc1O

Reply |
1: 7506; 2: 5473; 3: 7200; 4: 5780; 5: 1753; 6: 8871
